test_target: human Tissue Factor Pathway Inhibitor-1α (TFPI-1α) (human), P10646
Sequence (P10646 29-304): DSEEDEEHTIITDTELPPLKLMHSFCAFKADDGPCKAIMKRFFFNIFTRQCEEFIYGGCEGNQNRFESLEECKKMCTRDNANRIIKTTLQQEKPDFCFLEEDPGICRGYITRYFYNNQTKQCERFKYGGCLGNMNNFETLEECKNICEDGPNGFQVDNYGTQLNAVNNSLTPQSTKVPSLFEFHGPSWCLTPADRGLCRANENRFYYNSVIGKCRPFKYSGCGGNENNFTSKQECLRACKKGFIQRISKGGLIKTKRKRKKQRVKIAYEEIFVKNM
experiment_summary: competition
experimental_context: modification not given
# IC50 values compiled below

binder: FQSLKNVFVFGYFERLRAKL [JBT0604]
experimental_value: > 1670 nM

In one line, give reported IC50 of the entry FQSDKNVFVFGYFERLRAKL [JBT0588] .
> 5000 nM

Give IC50 for the following binder: FQSVGNVFVDGYFERLSAKL [JBT1278]
73 nM

Report IC50, nothing else, for this binder: FESKGNVFVFGYFERLRAKL [JBT0516]
1190 nM
